As shown below, each of these molecules has a reported Efflux ratio value.
System: Pseudomonas aeruginosa MB9798 vs MB9799
MEASUREMENT_CONDITIONS: ratio MITC95 PA_9798/MITC95 PA_9799

Some molecules with recorded Efflux ratio:
INSERT INTO assay_data (molecule, tested_target, observed_measurement) VALUES
  ('Nc1nc2c(-c3ccc(S(=O)(=O)NC4CCS(=O)(=O)CC4)c(S(N)(=O)=O)c3-c3nnn[nH]3)cccc2s1 [Example 14]', 'Pseudomonas aeruginosa MB9798 vs MB9799', 1.00),
  ('CS(=O)(=O)Nc1ccc(-c2ccc(S(=O)(=O)N[C@@H]3CCNC3)c(S(N)(=O)=O)c2-c2nnn[nH]2)cc1 [Example 136]', 'Pseudomonas aeruginosa MB9798 vs MB9799', 2.00),
  ('NCCNS(=O)(=O)c1ccc(-c2cccc3[nH]c(CN)nc23)c(-c2nn[nH]n2)c1S(N)(=O)=O [Example 343]', 'Pseudomonas aeruginosa MB9798 vs MB9799', 1.00);

Now consider the entry below.
input: Query for Pseudomonas aeruginosa MB9798 vs MB9799: what Efflux ratio does the record show for NCC(CO)(CO)NS(=O)(=O)c1ccc(-c2cccc3[nH]c(N)nc23)c(-c2nn[nH]n2)c1S(N)(=O)=O [Example 247] ?
output: 2.00

---

As shown below, each of these compounds has a reported IC50 value.
TESTED_TARGET: NDM-1 (Klebsiella pneumoniae)
Sequence (C7C422 whole entry, looked up, species assumed): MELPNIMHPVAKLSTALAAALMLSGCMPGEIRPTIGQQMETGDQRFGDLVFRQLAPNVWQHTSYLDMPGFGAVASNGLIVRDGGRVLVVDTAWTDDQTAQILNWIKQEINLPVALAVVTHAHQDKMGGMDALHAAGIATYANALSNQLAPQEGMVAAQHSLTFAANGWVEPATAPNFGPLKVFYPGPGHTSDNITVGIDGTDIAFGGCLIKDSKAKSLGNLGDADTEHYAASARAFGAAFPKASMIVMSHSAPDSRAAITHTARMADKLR
ASSAY_EXPLANATION: biochemical
Assay type: biochemical
MEASUREMENT_CONDITIONS: fluorescence assay, CCF2-FA substrate, 1 pM enzyme, 2 hours at 25° C.; read-out: NDM-1 IC50
Please respond with the number in nM and leave the unit unwritten.

INSERT INTO results (smiles, experimental_readout, observed_measurement) VALUES
  ('NC[C@@H](CO)NS(=O)(=O)c1ccc(-c2cccc3sc(N)nc23)c(-c2nnn[nH]2)c1S(N)(=O)=O', 'IC50', 0.0199),
  ('Nc1ccc(-c2ccc(S(=O)(=O)NC[C@@]3(N)CCNC3)c(S(N)(=O)=O)c2-c2nn[nH]n2)cn1', 'IC50', 0.276),
  ('NCCNS(=O)(=O)c1ccc(-c2cccc3ccc(N)nc23)c(-c2nn[nH]n2)c1S(N)(=O)=O', 'IC50', 0.0509),
  ('Nc1nc2c(-c3ccc(S(=O)(=O)N[C@@H]4CNC[C@H]4N)c(S(N)(=O)=O)c3-c3nn[nH]n3)cccc2[nH]1', 'IC50', 0.0869),
  ('NC[C@H](CO)NS(=O)(=O)c1ccc(-c2cccc3sc(N)nc23)c(-c2nnn[nH]2)c1S(N)(=O)=O', 'IC50', 0.124);

Now consider the entry below.
input: Which IC50 is listed for C[C@H]1NC(=O)O[C@H]1c1ccc(-c2ccc(S(=O)(=O)N[C@@H]3CCNC3)c(S(N)(=O)=O)c2-c2nnn[nH]2)cc1 ?
output: 0.0186

---

As shown below, each of these compounds has a reported Efflux ratio value.
Tested on: Pseudomonas aeruginosa MB9798 vs MB9799
MEASUREMENT_CONDITIONS: ratio MITC95 PA_9798/MITC95 PA_9799
Lab note: jot the number down without any unit.

input: Which Efflux ratio is listed for Nc1nc2c(-c3ccc(S(=O)(=O)NCC(=O)O)c(S(N)(=O)=O)c3-c3nn[nH]n3)cccc2s1 ?
output: 1.00

input: Continue with Cn1c(N)nc2c(-c3ccc(S(N)(=O)=O)c(S(N)(=O)=O)c3-c3nn[nH]n3)cccc21
output: 2.00

---

Tested on: Serratia marcescens expressing IMP-1 (CL5741)
Type: cell-based
MEASUREMENT_CONDITIONS: IMP-1 strain CL5741, with imipenem 1 μg/ml, 95% inhibition of growth
As shown below, each of these molecules has a reported Serratia marcescens MITC95 value.
Please respond with the number in µM and leave the unit unwritten.

input: Which Serratia marcescens MITC95 is listed for NCc1nc2cc(-c3ccc(S(=O)(=O)NC[C@H](O)CN)c(S(N)(=O)=O)c3-c3nn[nH]n3)ccc2[nH]1 ?
output: 1.563

input: Continue with C[C@@H](N)CNS(=O)(=O)c1ccc(-c2ccnc(N)c2)c(-c2nn[nH]n2)c1S(N)(=O)=O
output: 0.7813

input: Continue with Nc1ccc(-c2ccc(S(=O)(=O)NCC3(O)CCNCC3)c(S(N)(=O)=O)c2-c2nn[nH]n2)cn1
output: 1.563

input: Continue with Cc1cc(-c2ccc(S(=O)(=O)NC[C@H](O)CN)c(S(N)(=O)=O)c2-c2nn[nH]n2)cnc1N
output: 0.7813

input: Continue with NCCNS(=O)(=O)c1ccc(-c2cccc3c2CCCN3)c(-c2nn[nH]n2)c1S(N)(=O)=O
output: 3.125

input: Continue with NCCNS(=O)(=O)c1ccc(-c2ccc3ncn(CCN)c3c2)c(-c2nn[nH]n2)c1S(N)(=O)=O
output: 1.563

input: Continue with Nc1ccc2cccc(-c3ccc(S(=O)(=O)N[C@@H]4CNC[C@@H]4N)c(S(N)(=O)=O)c3-c3nn[nH]n3)c2n1
output: 1.563

input: Continue with NC[C@@H](O)CNS(=O)(=O)c1ccc(-c2cccc3[nH]c(N)nc23)c(-c2nn[nH]n2)c1S(N)(=O)=O
output: 0.4531

input: Continue with NC[C@H](O)CNS(=O)(=O)c1ccc(-c2ccc3nccn3c2)c(-c2nn[nH]n2)c1S(N)(=O)=O
output: 0.7813

input: Continue with NCCNS(=O)(=O)c1ccc(-c2cccc(NC(=O)[C@@H](N)CN)c2)c(-c2nn[nH]n2)c1S(N)(=O)=O
output: 3.125

input: Continue with CNc1nc2c(-c3ccc(S(=O)(=O)NCCN)c(S(N)(=O)=O)c3-c3nn[nH]n3)cccc2[nH]1
output: 0.7813

input: Continue with NCCNS(=O)(=O)c1ccc(-c2cccc(SCC(N)CO)c2)c(-c2nn[nH]n2)c1S(N)(=O)=O (stereo not drawn)
output: 1.563

input: Continue with NCCNS(=O)(=O)c1ccc(-c2cccc3sc(CN)nc23)c(-c2nn[nH]n2)c1S(N)(=O)=O
output: 0.7813

input: Continue with NC[C@H](N)CNS(=O)(=O)c1ccc(-c2cnc(N)s2)c(-c2nn[nH]n2)c1S(N)(=O)=O
output: 1.563

input: Continue with C[C@H](CN)NS(=O)(=O)c1ccc(-c2cccc(N)n2)c(-c2nn[nH]n2)c1S(N)(=O)=O
output: 3.125

---

As shown below, each of these compounds has a reported Efflux ratio value.
System: Pseudomonas aeruginosa MB9798 vs MB9799
MEASUREMENT_CONDITIONS: ratio MITC95 PA_9798/MITC95 PA_9799
Lab note: jot the number down without any unit.

INSERT INTO results (compound, tested_target, observed_measurement) VALUES
  ('C[C@@H](CN)NS(=O)(=O)c1ccc(-c2cccc3[nH]c(N)nc23)c(-c2nn[nH]n2)c1S(N)(=O)=O [Example 186]', 'Pseudomonas aeruginosa MB9798 vs MB9799', 2.00),
  ('Nc1nc2c(-c3ccc(S(=O)(=O)NCC4(CO)CC4)c(S(N)(=O)=O)c3-c3nnn[nH]3)cccc2s1 [Example 37]', 'Pseudomonas aeruginosa MB9798 vs MB9799', 1.00);

Now consider the entry below.
input: Which Efflux ratio is listed for C[C@H](CN)NS(=O)(=O)c1ccc(-c2cccnc2N)c(-c2nn[nH]n2)c1S(N)(=O)=O [Example 212] ?
output: 1.00

---

TESTED_TARGET: VIM-1 (Pseudomonas aeruginosa (strain ATCC 15692 / DSM 22644 / CIP 104116 / JCM 14847 / LMG 12228 / 1C / PRS 101 / PAO1), UniProt A0A0F7KYQ8)
ASSAY_EXPLANATION: biochemical
MEASUREMENT_CONDITIONS: fluorescence assay, CCF2-FA substrate, 30 pM enzyme, 2 hours at 25° C.; read-out: VIM-1 IC50
Binary call on IC50 with cut-off 0.8 nM: strictly below means criterion met, and equality or higher means criterion not met.

INSERT INTO assay_data (compound, assigned_class) VALUES
  ('Nc1nc2c(-c3ccc(S(=O)(=O)NC[C@@H]4CCCN4)c(S(N)(=O)=O)c3-c3nnn[nH]3)cccc2s1.O=CO [Example 125, formate]', 'criterion met');

input: Please determine if Nc1nc2cccc(-c3ccc(S(=O)(=O)N4CCNCC4)c(S(N)(=O)=O)c3-c3nn[nH]n3)c2[nH]1 [Example 157] is below 0.8 nM in terms of IC50.
output: criterion not met

---

TESTED_TARGET: NDM-1 (Klebsiella pneumoniae)
ASSAY_EXPLANATION: biochemical
Type: biochemical
MEASUREMENT_CONDITIONS: fluorescence assay, CCF2-FA substrate, 1 pM enzyme, 2 hours at 25° C.; read-out: NDM-1 IC50
pIC50: −log10 of the molar value.
Binary call on pIC50: yes from 10 upward, no beneath that.

Examples with answers:
INSERT INTO measurements (compound, assigned_class) VALUES
  ('Nc1nc2cccc(-c3ccc(S(=O)(=O)N4CCNCC4)c(S(N)(=O)=O)c3-c3nn[nH]n3)c2[nH]1 [Example 157]', 'no'),
  ('Nc1ncccc1-c1ccc(S(=O)(=O)NC[C@@H](N)CO)c(S(N)(=O)=O)c1-c1nn[nH]n1 [Example 214]', 'no'),
  ('Nc1ccc(-c2ccc(S(=O)(=O)N[C@H]3CNC[C@H]3N)c(S(N)(=O)=O)c2-c2nn[nH]n2)cn1 [Example 413]', 'no'),
  ('NC[C@@H](N)CNS(=O)(=O)c1ccc(-c2ccc(N)nc2)c(-c2nn[nH]n2)c1S(N)(=O)=O [Example 416]', 'no'),
  ('Nc1ccc(-c2ccc(S(=O)(=O)NC[C@@H]3CNCCN3)c(S(N)(=O)=O)c2-c2nn[nH]n2)cn1 [Example 312]', 'no');

input: Record NCCNS(=O)(=O)c1ccc(-c2cccc(C(=O)NC[C@H](N)CO)c2N)c(-c2nn[nH]n2)c1S(N)(=O)=O [Example 333] ; criterion: pIC50 no lower than 10. Met?
output: no

input: Continue with NCCNCCNS(=O)(=O)c1ccc(-c2ccc(N)nc2)c(-c2nn[nH]n2)c1S(N)(=O)=O [Example 482]
output: no

input: Continue with Nc1nc2c(-c3ccc(S(=O)(=O)N4CCNC(=O)C4)c(S(N)(=O)=O)c3-c3nnn[nH]3)cccc2s1 [Example 28]
output: no

input: Continue with Nc1ccc2cccc(-c3ccc(S(=O)(=O)N[C@@H]4CNC[C@@H]4N)c(S(N)(=O)=O)c3-c3nn[nH]n3)c2n1 [Example 319]
output: yes

input: Continue with C[C@@H](N)CNS(=O)(=O)c1ccc(-c2ccc3nccn3c2)c(-c2nn[nH]n2)c1S(N)(=O)=O [Example 423]
output: no

input: Continue with Nc1nc2c(-c3ccc(S(=O)(=O)NC[C@]4(N)CCNC4)c(S(N)(=O)=O)c3-c3nn[nH]n3)cccc2s1 [Example 366]
output: yes

input: Continue with C[C@H](CN)NS(=O)(=O)c1ccc(-c2cccc3[nH]c(N)nc23)c(-c2nn[nH]n2)c1S(N)(=O)=O [Example 187]
output: yes

input: Continue with Nc1nc2c(-c3ccc(S(=O)(=O)N4CCC[C@H](N)C4)c(S(N)(=O)=O)c3-c3nnn[nH]3)cccc2s1 [Example 66]
output: no

input: Continue with Nc1nc2c(-c3ccc(S(=O)(=O)N[C@H]4C[C@H](N)C4)c(S(N)(=O)=O)c3-c3nnn[nH]3)cccc2s1.O=C(O)C(F)(F)F [Example 98]
output: yes
